- Tested on: KM12 colon
Return exactly one item of Yes (active), No (inactive)

Qu. Returns: the outcome recorded for `O=C(N/N=C/c1ccc(F)cc1)c1[nH]c2ccc(I)cc2c1-c1ccccc1` in this assay.
Ans. Yes

Qu. What call does the record list for OCC1OC(N2C=C(c3nc4ccccc4s3)C3C=CC=CC32)C(O)C1O (stereo unspecified) ?
Ans. No

Qu. Each compound tested received a call. Report the one for `CCCCc1cc(O)ccc1O` .
Ans. No

----------
- Tested on: KM12 colon
- measurement protocol: NCI tumour cell line growth inhibition, 48 h
TGI reference

- compound: "CC(=O)C(=C(I)I)c1ccccc1"
  TGI: "41.4 µM"
- compound: "Cn1c(N/N=C/c2ccc(Cl)cc2)nc(-c2ccc(Cl)cc2)c(C#N)c1=O"
  TGI: "57.6 µM"

Qu. Given the entry C/C(=C\CCC1=CC(=O)OC1)CC[C@@H]1[C@H]2C(=O)CC(C)[C@@]3(C)CC[C@]1(C)[C@@]23C (stereo not given in full) , what TGI was observed with KM12 colon?
Ans. > 10 µM

Qu. Given the entry `COc1ccc(-c2cc(-c3ccc(Nc4ccnc5cc(Cl)ccc45)cc3)nc(N)c2C#N)c2ccccc12` , what TGI was observed with KM12 colon?
Ans. > 100 µM

----------
TGI values for the compounds below.
- Test system: HCT-15 colon
- measurement protocol: NCI tumour cell line growth inhibition, 48 h

Field: example entries. Status: answers known.
- compound: "CCc1cccc(C)c1NC(=O)CC1Sc2ccccc2NC1=O (centres undefined)"
  system under test: "HCT-15 colon"
  TGI: "> 100 µM"
- compound: "CN(C)CCNC(=O)c1cc([N+](=O)[O-])cc2ccc(-c3ccccc3)nc12"
  system under test: "HCT-15 colon"
  TGI: "> 56.6 µM"
- compound: "CC1(C)N=C(N)N=C(N)N1c1cccc(CSc2ccccc2)c1"
  system under test: "HCT-15 colon"
  TGI: "> 100 µM"
- compound: "C/C(=C\\CCC1=CC(=O)OC1)CC[C@@H]1[C@H]2C(=O)CC(C)[C@@]3(C)CC[C@]1(C)[C@@]23C (some centres undefined)"
  system under test: "HCT-15 colon"
  TGI: "> 10 µM"
- compound: "CC/C=C\\C[C@H](O)C/C=C1/C(=O)C=C[C@@H]1C/C=C\\CCCC(N)=O"
  system under test: "HCT-15 colon"
  TGI: "5.69 µM"
- compound: "O=C(O)c1nnsc1COCc1ccccc1"
  system under test: "HCT-15 colon"
  TGI: "> 100 µM"
- compound: "CC[C@H]1C=CCC[C@@]2(C[C@@H]3CC[C@@H]4[C@H](C(=O)OCCCCCCCCCCCCCCCC(=O)N(CCCN)C[C@@H](O)CCN)[C@]5(CCC[C@@H](C)O5)NC(=[N+]34)N2)O1"
  system under test: "HCT-15 colon"
  TGI: "> 10 µM"
- compound: "O=C1NC(N2CCOCC2)=N/C1=C\\c1ccccc1O"
  system under test: "HCT-15 colon"
  TGI: "> 100 µM"

Here is another compound to look at.
Qu. Endpoint output: TGI of CCN1C/C(=C\c2ccc(Cl)cc2)C2=NN(c3ccccc3)C(c3ccc(Cl)cc3)C2C1 (centres undefined) . Value?
Ans. > 100 µM

----------
- System: M14 melanoma
- measurement protocol: NCI tumour cell line growth inhibition, 48 h; in the data active = GI50 below about 0.43 µM; inactive = the rest
Reply using exactly one outcome from T for active, F for inactive

A selection of reference data follows.
- compound: "CCC(=O)N1C/C(=C/c2ccc(OC)cc2)C(=O)/C(=C/c2ccc(OC)cc2)C1"
  cat: "F"
- compound: "Cc1ccc(N2C(=O)C(Cl)=C(Nc3cccc(O)c3)C2=O)cc1Cl"
  cat: "F"
- compound: "ClCCn1cnc2c(SCc3ccccc3)ncnc21"
  cat: "F"
- compound: "OCC1OC(N2C=C(c3nc4ccccc4s3)C3C=CC=CC32)C(O)C1O (configuration not stated)"
  cat: "F"
- compound: "CN(C)CCNc1cccc2sc3ccc(O)cc3c(=O)c12"
  cat: "F"

Qu. Dear colleague, could you share the recorded outcome for `CCc1ccc(C2=C(O)C(=O)C(c3ccc(CC)cc3)=C(O)C2=O)cc1` when you have a moment?
Ans. F

Qu. I would be grateful if you could indicate the recorded call for CCN(CC)CC(C)Nc1ccc(C)c2sc3ccccc3c(=O)c12 (configuration not stated) .
Ans. F

Qu. Identify the outcome logged in this assay for the compound shown: C=C(CNCCO)[C@@H]1CC[C@]2(CO)CC[C@]3(C)[C@H](CC[C@@H]4[C@@]5(C)CCC(NCCc6ccc(O)cc6)C(C)(C)[C@@H]5CC[C@]43C)[C@@H]12 (some centres not stated)
Ans. T

Qu. Assay result, entry `O=C1C=C(c2cc(Br)c(O)c(Br)c2)/C(=C/c2cc(Br)c(O)c(Br)c2)O1` — outcome?
Ans. F

Qu. Check the results log: what was the call for `Cc1ccc(-c2cc3nc(-c4ccccc4)nc(C(Cl)Cl)n3n2)cc1` ?
Ans. F

Qu. What is the recorded call for this compound in the test? `CC(C)(C)C([O-])=C1C(=O)c2ccccc2C1=O.CC(C)(C)C([O-])=C1C(=O)c2ccccc2C1=O.CC[O-].CC[O-].[Ti+4]`
Ans. F

Qu. Recorded test outcome, item OC1CCC(Oc2cccc3cnc(Nc4ccc5nc[nH]c5c4)nc23)CC1 (configuration not stated)
Ans. T

----------
- Test system: SW-620 colon
- measurement protocol: NCI tumour cell line growth inhibition, 48 h
recorded metric: TGI

Previously resolved entries follow.
- compound: "Cc1ccc(-c2cc3nc(-c4ccccc4)nc(C(Cl)Cl)n3n2)cc1"
  TGI: "2.29 µM"
- compound: "C=C(CNCCO)[C@@H]1CC[C@]2(CO)CC[C@]3(C)[C@H](CC[C@@H]4[C@@]5(C)CCC(NCCc6ccc(O)cc6)C(C)(C)[C@@H]5CC[C@]43C)[C@@H]12 (stereo not given in full)"
  TGI: "1.85 µM"
- compound: "C=CCN(N=O)C(=O)N(CCC)CCCC(NC(C)=O)C(=O)NCc1ccccc1 (stereo not given)"
  TGI: "> 100 µM"
- compound: "CC1(C)C2CCC1C(=O)C(C=O)C2 (stereo not given)"
  TGI: "> 100 µM"
- compound: "CC1(C)C(=O)/C(=C\\c2ccco2)C[C@]2(C)[C@H]3CC=C4[C@@H]5C[C@](C)(C(=O)O)CC[C@]5(C)CC[C@@]4(C)[C@]3(C)CC[C@@H]12"
  TGI: "25.9 µM"

Qu. TGI lookup needed for `CN(C)c1ccc(/C=N/NC2=N/C(=C\c3ccco3)C(=O)N2)cc1` , thanks.
Ans. > 100 µM

Qu. State the recorded TGI for this entry: `COC(=O)c1c(O)ccc2c1c1c(n2C)C(=O)c2ccccc2C1=O`
Ans. > 100 µM

Qu. Find the recorded TGI belonging to `COc1ccc2nc3c([N+](=O)[O-])ccc4c3c(c2c1)NCCN4C` and report it.
Ans. 4.76 µM

Qu. Entry `Cc1ccc2c3c1O[C@H]1c4nc5ccccc5cc4C[C@@]4(O)[C@@H](C2)N(CC2CC2)CC[C@]314` : reported TGI = ?
Ans. 18.3 µM

Qu. # TGI lookup, item COc1ccc([N+](=O)[O-])c2c(NCC(O)CO)ccnc12 (stereo not given)
Ans. > 100 µM

Qu. Query (compound): `CCN(CC)CCNc1ccc(N=Nc2ccc(S(N)(=O)=O)cc2)c2ccccc12` ; field requested: TGI
Ans. 14.6 µM

Qu. For the compound O=C1CC(c2cccc(Cl)c2)n2cccc21 (stereo not given) , what TGI is on record?
Ans. > 100 µM

Qu. GET /values?readout=TGI&item= `Cn1c2ccccc2n2c3nc4ccccc4nc3c(C#N)c12`
Ans. > 100 µM

Qu. Please report the recorded TGI for `CN(C)c1ccc(C(c2ccc(N(C)C)cc2)c2ccc([N+](=O)[O-])cc2)cc1` .
Ans. > 100 µM

Qu. Value lookup for TGI; key = `O=C(O)C(Cc1cccs1)C(=O)O`
Ans. > 100 µM

----------
- Tested on: RPMI-8226 leukemia
- measurement protocol: NCI tumour cell line growth inhibition, 48 h
Decide by TGI: equal to or exceeding 40 µM means rule met, less means rule not met.

Example entries and their recorded answers appear below.
- compound: "Clc1ccc(-c2nc(-c3ccc(Cl)cc3)[s+]s2)cc1"
  cat: "rule met"
- compound: "COc1cccc(-c2cc(=O)c3cc(C)cnc3[nH]2)c1"
  cat: "rule not met"
- compound: "c1ccc(N=NNNc2ccc(-c3nc4ccccc4[nH]3)cc2)cc1"
  cat: "rule met"
- compound: "O=[N+]([O-])C(=C(NCc1ccccc1)NCc1ccccc1)C(Cl)=C(Cl)Cl"
  cat: "rule met"
- compound: "COC(=O)c1ccc(OCc2ccc3oc(=O)c(-c4ccccc4)nc3c2)cc1"
  cat: "rule met"

Qu. Determine whether measured TGI meets or exceeds 40 µM for `NC(N)=NNC(=O)C(=O)O`
Ans. rule met

Qu. Has `CN(C)CCNC(=O)c1cc([N+](=O)[O-])cc2ccc(-c3ccccc3)nc12` a recorded TGI greater than or equal to 40 µM?
Ans. rule met

Qu. Is TGI for c1ccc2c(c1)SC1Sc3ccccc3[S+]21 (stereo unspecified) at or above 40 µM?
Ans. rule met

Qu. Please tell me: is the compound `c1ccc(COc2ccc3[nH]c4c(ncc5[nH]c6ccccc6c54)c3c2)cc1` at or over 40 µM in terms of TGI?
Ans. rule not met

Qu. I'd appreciate it if you could say whether `COc1nc2c(c(=O)n1C)N[C@@H]1[C@@H](O)[C@H](O)CO[C@@H]1N2` has TGI at least equal to 40 µM.
Ans. rule met

Qu. Reported TGI reaches at least 40 µM for `O=Nc1c2cccnc2n2nnc3ccc(Cl)cc3c12` ?
Ans. rule not met
